B1: Pistol ribozyme (parent)
chain: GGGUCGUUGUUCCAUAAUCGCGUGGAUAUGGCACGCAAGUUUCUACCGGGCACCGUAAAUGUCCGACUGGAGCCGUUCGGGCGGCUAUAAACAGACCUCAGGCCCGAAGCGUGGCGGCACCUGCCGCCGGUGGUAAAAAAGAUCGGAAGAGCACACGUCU

- Variants of: B1
- method summary: aptazyme ON/OFF ratio, guanine; higher = stronger switching; co-transcriptional cleavage with and without guanine
measured parameter: aptazyme ON/OFF ratio
Write no unit; give the number alone.

[
  {
    "mutant designation": "U7G U8C U10G U11C C12G C13U",
    "aptazyme ON/OFF ratio": 1.36
  }
]

Measured aptazyme ON/OFF ratio, U8A G9U U10G U11A C13U : 1.03

Measured aptazyme ON/OFF ratio, U7A U8G G9U C13A : 1.25

Measured aptazyme ON/OFF ratio, U7C U8G U10A U11C C12G C13U : 1.24

Measured aptazyme ON/OFF ratio, U7C U8G G9A U11C C12U C13U : 1.09

Measured aptazyme ON/OFF ratio, U7G G9A U10G U11C C12U : 1.11

Measured aptazyme ON/OFF ratio, U7C U10C U11A C12U C13U : 1.22

Measured aptazyme ON/OFF ratio, U7A U8A G9C U10G U11C C12G C13G : 1.39

Measured aptazyme ON/OFF ratio, U7G U8A U10G U11A C12U C13A : 1.37

Measured aptazyme ON/OFF ratio, U7G U8A G9C U10A C12A : 1.03

Measured aptazyme ON/OFF ratio, U7C U8C G9U U10G C13A : 1.21

Measured aptazyme ON/OFF ratio, G9U U10A U11A C13A : 1.38

Measured aptazyme ON/OFF ratio, U7A U8A G9U U10G U11A C12U C13U : 1.13

Measured aptazyme ON/OFF ratio, U7G G9C U11G C12A C13A : 1.21

Measured aptazyme ON/OFF ratio, U7G G9U U11C C13G : 1.05

Measured aptazyme ON/OFF ratio, U7A G9C U10A C12A C13A : 1.14
